Numbers sourced from paper PMC9596378.

# Tested system: PPIL1 (Homo sapiens, UniProt Q9Y3C6)
# Construct: PPIL1 (UniProtKB Entry Q9Y3C6: residues 1–166); made in house; host or cells: E. coli BL21(DE3)
# Sequence (Q9Y3C6 whole entry, the tested form may be a part): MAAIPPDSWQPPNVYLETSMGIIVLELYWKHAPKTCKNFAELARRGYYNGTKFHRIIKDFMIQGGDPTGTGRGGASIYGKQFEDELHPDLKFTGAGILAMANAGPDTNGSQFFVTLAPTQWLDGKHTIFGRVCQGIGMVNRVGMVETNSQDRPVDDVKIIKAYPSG
# Assay overview: Chymotrypsin coupled prolyl-isomerase assay
# Assay type: biochemical
# Measurement setup: wild-type PPIL1; read-out: Wild-Type Cyclophilin Prolyl Isomerase Inhibition IC50 Values, PPIL1
In this section we review reported IC50 values for a set of compounds.
Measurement type: IC50

compound="C[N+]1=C(C=CC=CC=C2N(CCCCCC(=O)NCCNC(=O)C3CCNC(=O)C=CC(=O)N4CCCC(Cc5ccccc5)(C4)C(=O)NC(Cc4ccc(-c5ccc(C(CC(=O)O)CC(=O)O)cc5)cc4)C(=O)NCc4ccccc4CC(=O)N3)c3ccccc3C2(C)C)C(C)(C)c2ccccc21 (stereo not drawn) [Compound B53-Cy5]" tested_system="PPIL1 (Homo sapiens, UniProt Q9Y3C6)" meas_value="> 2000 nM"
compound="NCCOCCNC(=O)[C@@H]1CCNC(=O)/C=C/C(=O)N2CCC[C@](Cc3ccccc3)(C2)C(=O)N[C@@H](Cc2ccc(-c3ccc(C#CC(=O)O)cc3)cc2)C(=O)NCc2ccccc2CC(=O)N1 [Compound B25]" tested_system="PPIL1 (Homo sapiens, UniProt Q9Y3C6)" meas_value="20 nM"
compound="C[N+]1=C(C=CC=CC=C2N(CCCCCC(=O)NCCNC(=O)C3CCNC(=O)C=CC(=O)N4CCCC(Cc5ccccc5)(C4)C(=O)NC(Cc4ccc(-c5ccc(C(CC(=O)O)CC(=O)O)cc5)cc4)C(=O)NCc4ccccc4CC(=O)N3)c3ccccc3C2(C)C)C(C)(C)c2ccccc21 (stereo not drawn) [*B53-Cy5]" tested_system="PPIL1 (Homo sapiens, UniProt Q9Y3C6)" meas_value="> 10000 nM"
compound="C[N+]1=C(C=CC=CC=C2N(CCCCCC(=O)NCCNC(=O)C3CCNC(=O)C=CC(=O)N4CCCC(Cc5ccccc5)(C4)C(=O)NC(Cc4ccc(-c5ccc(CC(C(=O)O)C(=O)O)cc5)cc4)C(=O)NCc4ccccc4CC(=O)N3)c3ccccc3C2(C)C)C(C)(C)c2ccccc21 (stereo not drawn) [Compound B52-Cy5]" tested_system="PPIL1 (Homo sapiens, UniProt Q9Y3C6)" meas_value="4000 nM"
compound="NCCOCCNC(=O)C1CCNC(=O)C=CC(=O)N2CCCC(C2)C(=O)NC(Cc2ccc(C(=O)c3ccccc3)cc2)C(=O)NCc2ccccc2CC(=O)N1 (stereo not drawn) [Compound A14]" tested_system="PPIL1 (Homo sapiens, UniProt Q9Y3C6)" meas_value="10000 nM"
compound="NCCOCCNC(=O)[C@@H]1CCNC(=O)/C=C/C(=O)N2CCC[C@](Cc3ccccc3)(C2)C(=O)N[C@@H](Cc2ccc(-c3ccc(C(=O)O)cc3)cc2)C(=O)NCc2ccccc2CC(=O)N1 [Compound B20]" tested_system="PPIL1 (Homo sapiens, UniProt Q9Y3C6)" meas_value="1400 nM"
compound="NCCOCCNC(=O)[C@@H]1CCNC(=O)/C=C/C(=O)N2CCC[C@](Cc3ccccc3)(C2)C(=O)N[C@@H](Cc2ccc(-c3ccc(CC(=O)O)cc3)cc2)C(=O)NCc2ccccc2CC(=O)N1 [Compound B22]" tested_system="PPIL1 (Homo sapiens, UniProt Q9Y3C6)" meas_value="600 nM"
compound="NCCOCCNC(=O)[C@@H]1CCNC(=O)/C=C/C(=O)N2CCC[C@](Cc3ccccc3)(C2)C(=O)N[C@@H](Cc2ccc(C(=O)c3ccccc3)cc2)C(=O)NCc2ccccc2CC(=O)N1 [Compound B1]" tested_system="PPIL1 (Homo sapiens, UniProt Q9Y3C6)" meas_value="200 nM"
compound="NCCOCCNC(=O)[C@@H]1CCNC(=O)/C=C/C(=O)N2CCC[C@](Cc3ccccc3)(C2)C(=O)N[C@@H](Cc2ccc(-c3ccc(CCC(=O)O)cc3)cc2)C(=O)NCc2ccccc2CC(=O)N1 [Compound B23]" tested_system="PPIL1 (Homo sapiens, UniProt Q9Y3C6)" meas_value="130 nM"
